TESTED ON: EGFR (Homo sapiens, UniProt P00533)
Construct: host or cells: A431
Sequence (P00533 25-1210): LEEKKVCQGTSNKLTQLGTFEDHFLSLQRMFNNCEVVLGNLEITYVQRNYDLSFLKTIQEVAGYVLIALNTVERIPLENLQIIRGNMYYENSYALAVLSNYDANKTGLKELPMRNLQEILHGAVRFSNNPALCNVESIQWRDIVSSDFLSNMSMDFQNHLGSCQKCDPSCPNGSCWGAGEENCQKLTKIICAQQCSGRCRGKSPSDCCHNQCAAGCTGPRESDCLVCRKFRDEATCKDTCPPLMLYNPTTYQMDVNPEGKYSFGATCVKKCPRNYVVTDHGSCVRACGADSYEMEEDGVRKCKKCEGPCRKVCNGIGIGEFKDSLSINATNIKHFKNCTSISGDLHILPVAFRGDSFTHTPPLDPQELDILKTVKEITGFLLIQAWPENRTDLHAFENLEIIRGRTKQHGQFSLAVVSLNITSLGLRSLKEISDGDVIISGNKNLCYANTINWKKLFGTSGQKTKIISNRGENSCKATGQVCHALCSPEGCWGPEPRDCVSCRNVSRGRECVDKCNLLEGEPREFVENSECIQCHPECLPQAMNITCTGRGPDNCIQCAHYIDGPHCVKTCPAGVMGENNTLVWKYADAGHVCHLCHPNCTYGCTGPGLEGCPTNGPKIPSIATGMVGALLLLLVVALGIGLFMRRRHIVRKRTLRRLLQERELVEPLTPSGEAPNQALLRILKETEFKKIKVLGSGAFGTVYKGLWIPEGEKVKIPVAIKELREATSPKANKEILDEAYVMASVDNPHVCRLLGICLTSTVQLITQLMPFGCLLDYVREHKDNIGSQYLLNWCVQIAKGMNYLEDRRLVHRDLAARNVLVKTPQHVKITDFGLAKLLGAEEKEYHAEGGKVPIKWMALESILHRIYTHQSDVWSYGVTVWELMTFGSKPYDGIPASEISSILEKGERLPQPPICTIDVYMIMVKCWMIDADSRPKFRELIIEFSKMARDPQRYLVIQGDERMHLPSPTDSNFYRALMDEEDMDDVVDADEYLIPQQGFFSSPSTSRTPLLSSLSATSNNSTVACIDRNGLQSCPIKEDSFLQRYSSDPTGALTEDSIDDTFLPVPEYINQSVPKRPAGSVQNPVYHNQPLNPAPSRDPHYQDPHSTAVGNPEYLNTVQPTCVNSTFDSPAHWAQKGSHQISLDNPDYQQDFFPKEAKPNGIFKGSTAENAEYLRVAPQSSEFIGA
ASSAY TEXT: EGFR in-cell Western (ICW) screening protocol (EGFR inhibition assay)
Assay type: cell-based
CONDITION DESCRIPTION: Table 10; % Inhibition of EGF dependent EGFR phosphorylation in A431 cells; compound 125 μM in assay
MEASURE NAME: ICW assay

Completed entries (count: 4):
COc1ccc(C)cc1NC(=S)Nc1ccc(S(=O)(=O)Nc2ccc(Cl)cc2)cc1 :: 33.3993
Cc1cc(C)c(NS(=O)(=O)c2ccc(NC(=S)Nc3ccc(S(C)(=O)=O)cc3)cc2)c(C)c1 :: 44.904
CC(=O)c1cccc(NC(=S)Nc2ccc(S(=O)(=O)N3c4ccc(F)cc4CCC3C)cc2)c1 (centres unmarked) :: 26.7866
CCC(C)c1ccc(NC(=S)Nc2ccc(S(=O)(=O)Nc3ccccc3)cc2)cc1 (centres unmarked) :: 49.531

A: CCc1ccc(NC(=S)Nc2ccc(S(=O)(=O)Nc3ccccc3)cc2)cc1
B: O=S(=O)(Nc1ccccc1)c1ccc(NC(=S)Nc2ccc(Cl)cc2)cc1
C: CC1CCc2cc(F)ccc2N1S(=O)(=O)c1ccc(NC(=S)Nc2ccc(Br)cc2)cc1 (centres unmarked)
Input line: Hi! Can you put these in order of ICW assay, lowest number first? Output the labels ranked as instructed.
Output line: C, A, B

====

TESTED ON: EGFR (Homo sapiens)
Construct: host or cells: A431
ASSAY TEXT: EGFR in-cell Western (ICW) screening protocol (EGFR inhibition assay)
Assay type: cell-based
CONDITION DESCRIPTION: Table 10; % Inhibition of EGF dependent EGFR phosphorylation in A431 cells; compound 125 μM in assay
MEASURE NAME: ICW assay

Example entries and their recorded answers appear below.
Cc1cc(C)cc(NC(=S)Nc2ccc(S(=O)(=O)Nc3cc(Cl)cc(Cl)c3)cc2)c1 :: 53.1391
COc1ccc(NC(=S)Nc2ccc(S(=O)(=O)Nc3cc(Cl)cc(Cl)c3)cc2)cc1OC :: 42.006

a: COc1ccc(NS(=O)(=O)c2ccc(NC(=S)Nc3ccc(OC)c(OC)c3)cc2)cc1
b: CCC(C)c1ccc(NC(=S)Nc2ccc(S(=O)(=O)Nc3ccc(OC)cc3)cc2)cc1 (stereo not shown)
Input line: Which value of ICW assay is smaller, the one for a or the one for b ? Refer to your chosen entry by its label in the reply.
Output line: a

====

System: epithelial carcinoma A431 cell line
ASSAY TEXT: MTT Cell Proliferation Assay, A431 cells
Type: cell-based
CONDITION DESCRIPTION: Homo sapiens, A-431, A431 cells, first value of cell; read-out: MTT Assay IC50(A431/MDBK): A431
Counter-ions that a name gives are not always drawn.
MEASURE NAME: IC50 (µM)

These solved cases illustrate the format of a correct answer.
CCCCCc1c(C)nc(Nc2nc(C)c3cc(CC)ccc3n2)[nH]c1=O [12226 + TFA] :: 42.5
CCCc1c(C)nc(Nc2nc(C)c3cccc(C)c3n2)[nH]c1=O [12625 + TFA] :: 21.2
CC1(C)CC(=O)c2cnc(Nc3nc(-c4ccccc4)c4cc(Cl)ccc4n3)nc2C1 [11807 + TFA] :: 5.31
CCCc1c[nH]c(Nc2nc(C)c3ccccc3n2)nc1=O [compound 12622] :: 20.8
CCCCCc1c(C)nc(Nc2nc(C)c3ccc(C)cc3n2)[nH]c1=O [11730 + TFA] :: 14.5

I: COc1cccc2c(C)nc(Nc3nc(C)c(C)c(=O)[nH]3)nc12 [compound 12615]
II: Cc1ccc(C2CC(=O)c3cnc(Nc4nc(C)c5cc(C)c(C)cc5n4)nc3C2)cc1 (stereo not drawn) [11670 + TFA]
Input line: Given the listed items, does I or II have the lesser reported IC50? Response format: the label of the selected entry.
Output line: I

====

Test system: MDBK line
ASSAY TEXT: MTT Cell Proliferation Assay, MDBK cells
Type: cell-based, bovine
CONDITION DESCRIPTION: Bos taurus, MDBK, second value of 'a/b (c)'; taken as MDBK cells; read-out: MTT Screen, second value of cell
In this section, each of the compounds is paired with its reported pIC50.
Units for pIC50: none; it is -log10 of a concentration expressed in mol/L.

The examples below pair each entry with its known result.
COc1cc(NS(=O)(=O)c2ccc(NC(=S)NC(=O)/C=C/c3cccs3)cc2)nc(OC)n1 [AD4-11881] :: 4.33
O=C(NC(=S)Nc1ccc(S(=O)(=O)Nc2ccccc2)cc1)C1CCC1 [AD4-12044] :: 4.48
CCCC(=O)NC(=S)Nc1ccc(S(=O)(=O)NCCc2ccccc2)cc1 [AD4-10612] :: 4.88
COc1ccc(NS(=O)(=O)c2ccc(NC(=S)NC(=O)COc3ccc(Cl)cc3C)cc2)cc1 [AD4-12196] :: 4.43
COc1ccc(CC(=O)NC(=S)Nc2ccc(S(=O)(=O)Nc3nc(C)cc(C)n3)cc2)cc1 [AD4-12266] :: 4.34

Input line: May I ask what pIC50 has been recorded for Cc1ccc(NS(=O)(=O)c2ccc(NC(=S)NC(=O)C3CCC3)cc2)cc1C [AD4-10676] ?
Output line: 5.05

Input line: Give the measured pIC50 of Cc1cc(C)cc(NS(=O)(=O)c2ccc(NC(=S)NC(=O)CC(C)C)cc2)c1 [AD4-12017] .
Output line: 5.23

Input line: Query (compound): CCN(c1ccccc1)S(=O)(=O)c1ccc(NC(=S)NC(=O)Cc2ccccc2)cc1 [AD4-11412] ; field requested: pIC50
Output line: 4.70

====

TESTED ON: EGFR (Homo sapiens)
Construct: host or cells: A431
ASSAY TEXT: EGFR in-cell Western (ICW) screening protocol (EGFR inhibition assay)
Type: cell-based
Design: unit not given here
CONDITION DESCRIPTION: ICW assay, run 1
Structures can show the parent of a compound that is named as a salt.
MEASURE NAME: ICW 1

CCc1ccc2nc(Nc3nc(C)c4c(n3)CCCC4)nc(C)c2c1 :: 28.35
CCCc1c[nH]c(Nc2nc(C)c3ccccc3n2)nc1=O [compound 12622] :: 21.30
COc1cccc2c(C)nc(Nc3nc(-c4ccc(F)cc4)cc(=O)[nH]3)nc12 [compound 12620] :: 32.26
CCc1ccc2nc(Nc3nc(=O)cc(CSc4nc5ccccc5s4)[nH]3)nc(C)c2c1 [11300 + TFA] :: 25.11

a: COc1cccc2c(C)nc(Nc3nc4c(c(=O)[nH]3)CCCC4)nc12 [11484 + TFA]
b: CCOc1ccc2nc(Nc3nc(=O)cc(-c4ccccc4)[nH]3)nc(C)c2c1 [12608 + TFA]
c: CCCCc1c(C)nc(Nc2nc(C)c3ccc(C)cc3n2)[nH]c1=O [12776 + TFA]
d: COc1ccc(C2CC(=O)c3cnc(Nc4nc(-c5ccccc5)c5ccccc5n4)nc3C2)cc1 (centres unmarked) [11663 + TFA]
Input line: Reorder: ICW 1, max to min. Your task in answering is to list the labels in the requested order.
Output line: a, b, d, c

====

TESTED ON: EGFR (Homo sapiens)
Construct: host or cells: A431
ASSAY TEXT: EGFR in-cell Western (ICW) screening protocol (EGFR inhibition assay)
Assay type: cell-based
Procedure: The following example describes general EGFR in-cell Western (ICW) screening protocol. Methods are according to Chen et al. (2005) Analytical Biochemistry 338, 136-142 (incorporated herein by reference), except as otherwise noted. Cell Plates: A431 cells (ATCC # CRL-1555) were grown in Dulbecco's Modified Eagle Medium (DMEM; ATCC #30-2002) supplemented with 10% fetal bovine serum, 105 units/ml pen/strep (Invitrogen #15140155) and 2.1 mM L-glutamine (ATCC #30-2214). […]
MEASURE NAME: ICW Screen (ICW Inhibition)

Before answering, review these 5 worked examples.
C=CCN(CC=C)S(=O)(=O)c1ccc(NC(=S)NC(=O)/C=C/c2ccccc2)cc1 :: 25.019
COc1ccc(CC(=O)NC(=S)Nc2ccc(S(=O)(=O)NCCc3ccccc3)cc2)cc1 [AD4-11415] :: 35.841
Cc1ccc(NS(=O)(=O)c2ccc(NC(=S)NC(=O)CC(C)C)cc2)cc1C :: 31.244
CCCC(=O)NC(=S)Nc1ccc(S(=O)(=O)NCCc2ccccc2)cc1 :: 30.841
CCc1nnc(NS(=O)(=O)c2ccc(NC(=S)NC(=O)C34CC5CC(CC(C5)C3)C4)cc2)s1 :: 28.892

A: COc1ccc(/C=C/C(=O)NC(=S)Nc2ccc(S(=O)(=O)Nc3nc(C)cc(C)n3)cc2)cc1OC
B: CCc1nnc(NS(=O)(=O)c2ccc(NC(=S)NC(=O)/C=C/c3ccccc3)cc2)s1 [AD4-11367]
C: Cc1ccc(NS(=O)(=O)c2ccc(NC(=S)NC(=O)C(C)C)cc2)cc1C
Input line: Exam item: list the entries in increasing order of ICW Screen (ICW Inhibition). // format: requested-order list of labels
Output line: C, B, A
